Biological target: T1, NHERF3_1, Q5T2W1
T1 sequence (Q5T2W1 4-100, limits assumed, looked up): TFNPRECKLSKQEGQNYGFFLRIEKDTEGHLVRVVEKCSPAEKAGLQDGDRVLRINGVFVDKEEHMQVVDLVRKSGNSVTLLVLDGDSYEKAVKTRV
Test: holdup assay
Set-up: key: below the threshold = too weak to quantify, mostly under pKd 3.1 to 4
Details: plain residues with an end cap or a label only (N-terminal biotin on a linker: ado-ado)

[
  {
    "BINDER": "SQDPKKPSRV [CBY2, Q8NA61]",
    "pKd": "below the threshold"
  },
  {
    "BINDER": "YAEKRMLTEV [KCNA6, P17658]",
    "pKd": "below the threshold"
  },
  {
    "BINDER": "DAAHHDESNC [FMNL3, Q8IVF7]",
    "pKd": "below the threshold"
  },
  {
    "BINDER": "PKSNSSKEYV [CLDN7, O95471]",
    "pKd": "below the threshold"
  },
  {
    "BINDER": "AHGSTRDQSI [KCNB1, Q14721]",
    "pKd": "below the threshold"
  },
  {
    "BINDER": "NISARRFTLC [FAM167B, Q9BTA0]",
    "pKd": 4.11
  },
  {
    "BINDER": "DLLGGGSDSI [TNRC6B, Q9UPQ9]",
    "pKd": "below the threshold"
  }
]
